target.or.test.system: S. aureus (SAU) GyrB ATPase (Staphylococcus aureus, UniProt P0A0K8)
Sequence (P0A0K8 whole entry): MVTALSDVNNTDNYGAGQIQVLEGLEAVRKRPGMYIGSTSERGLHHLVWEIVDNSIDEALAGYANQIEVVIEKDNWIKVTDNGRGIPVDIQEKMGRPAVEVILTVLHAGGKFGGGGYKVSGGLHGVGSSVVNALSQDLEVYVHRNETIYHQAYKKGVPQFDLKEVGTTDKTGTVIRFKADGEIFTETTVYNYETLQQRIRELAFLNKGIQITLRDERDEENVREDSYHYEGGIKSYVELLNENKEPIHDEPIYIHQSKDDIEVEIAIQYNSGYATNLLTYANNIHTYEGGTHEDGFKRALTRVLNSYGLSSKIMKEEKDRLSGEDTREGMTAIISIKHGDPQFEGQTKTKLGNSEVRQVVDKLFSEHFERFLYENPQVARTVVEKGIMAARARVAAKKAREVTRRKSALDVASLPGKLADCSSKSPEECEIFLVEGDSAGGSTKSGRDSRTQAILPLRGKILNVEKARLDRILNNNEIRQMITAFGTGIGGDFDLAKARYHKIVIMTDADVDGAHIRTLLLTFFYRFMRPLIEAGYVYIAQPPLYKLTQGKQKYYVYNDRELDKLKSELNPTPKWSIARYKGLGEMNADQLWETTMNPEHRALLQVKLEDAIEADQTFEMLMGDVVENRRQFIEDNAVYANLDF
Sequence (P0AES4 whole entry, further chain): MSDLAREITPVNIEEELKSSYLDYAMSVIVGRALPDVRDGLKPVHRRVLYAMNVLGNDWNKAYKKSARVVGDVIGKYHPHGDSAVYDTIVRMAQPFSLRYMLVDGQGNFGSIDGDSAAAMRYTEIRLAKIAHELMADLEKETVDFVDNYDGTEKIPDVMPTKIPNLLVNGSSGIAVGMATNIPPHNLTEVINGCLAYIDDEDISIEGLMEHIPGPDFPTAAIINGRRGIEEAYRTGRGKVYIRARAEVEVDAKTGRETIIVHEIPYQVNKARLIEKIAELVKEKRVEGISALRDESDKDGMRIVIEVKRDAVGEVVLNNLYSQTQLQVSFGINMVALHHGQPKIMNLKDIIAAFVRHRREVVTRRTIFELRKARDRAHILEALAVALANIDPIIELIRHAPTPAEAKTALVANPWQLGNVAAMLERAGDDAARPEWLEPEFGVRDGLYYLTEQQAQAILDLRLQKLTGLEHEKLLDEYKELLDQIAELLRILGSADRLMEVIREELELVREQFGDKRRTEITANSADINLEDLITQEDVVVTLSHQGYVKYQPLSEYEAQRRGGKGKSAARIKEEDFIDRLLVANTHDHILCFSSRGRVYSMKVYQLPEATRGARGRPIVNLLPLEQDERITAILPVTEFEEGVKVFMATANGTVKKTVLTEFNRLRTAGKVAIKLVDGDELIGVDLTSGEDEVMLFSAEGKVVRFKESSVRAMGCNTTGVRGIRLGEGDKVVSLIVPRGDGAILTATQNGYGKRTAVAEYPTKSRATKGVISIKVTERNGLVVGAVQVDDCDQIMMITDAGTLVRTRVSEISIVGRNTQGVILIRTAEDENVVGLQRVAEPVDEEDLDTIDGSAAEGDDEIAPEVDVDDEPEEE
experiment: S. aureus GyrB ATPase inhibition, ammonium molybdate/malachite green phosphate detection assay
Format: biochemical
condition.parameters: read-out: S. aureus (SAU) GyrB ATPase % Inhibition, compound concentration 12.5 μM
quantity.name: inhibition at 12.5 µM (%)
Please give a number only; it is taken to be in %.

CCCNC(=O)c1sc(-c2ccc(NC(=O)NCC)nc2)nc1C(=O)N(C)C ... 86.4
CCNC(=O)Nc1ccc(-c2ccc3c(c2)c(=O)c(C(=O)O)cn3CCOC)cn1 ... 83.4
CCNC(=O)Nc1cc(-c2cncc(F)c2)c(-c2cncc(C(=O)NC)c2)cn1 ... 88.2
CCNC(=O)Nc1cc(-c2cccc(C(=O)OCC)c2)ccn1 ... 86.9
CCNC(=O)Nc1cc(-c2ccccc2)c(-c2cncc(C(=O)O)c2)cn1 ... 100
CCNC(=O)Nc1ccc(-c2cncc(C(=O)OCC)c2)cn1 ... 55
CCCCNC(=O)c1nc(-c2ccc(NC(=O)NCC)nc2)sc1C(=O)NC ... 100
CCNC(=O)Nc1cc(-c2cccc(C(=O)O)c2)ccn1 ... 99.1

In plain terms, `CCNC(=O)Nc1ccc(-c2nc(C(=O)NC(C)(C)C)c(C(=O)N(C)C)s2)cn1` has a documented inhibition at 12.5 µM of 101

In plain terms, `CCNC(=O)Nc1cc(-c2ccc(F)nc2)c(-c2cncc(C(N)=O)c2)cn1` has a documented inhibition at 12.5 µM of 91.5

In plain terms, `CCCCn1cc(C(=O)O)c(=O)c2cc(-c3ccc(NC(=O)NCC)nc3)ccc21` has a documented inhibition at 12.5 µM of 91.7

In plain terms, `CCNC(=O)Nc1ccc(-c2ccc(C(=O)O)cn2)cn1` has a documented inhibition at 12.5 µM of 77.1

In plain terms, `CCNC(=O)Nc1cc(-c2nc(C(F)(F)F)cs2)c(-c2cncc(C(=O)OCC)c2)cn1` has a documented inhibition at 12.5 µM of 86.9

In plain terms, `CCNC(=O)Nc1ccc(-c2c[nH]c(=O)c(C(=O)O)c2)cn1` has a documented inhibition at 12.5 µM of 62.1

In plain terms, `CCNC(=O)Nc1ccc(-c2nc(C(=O)N[C@@H](C)COC)c(C(=O)OCC)s2)cn1` has a documented inhibition at 12.5 µM of 0.95

In plain terms, `CCNC(=O)Nc1ccc(-c2ncc(C(=O)OC)s2)cn1` has a documented inhibition at 12.5 µM of 3.02

In plain terms, `CCNC(=O)Nc1ccc(-c2nc(C(=O)NCCOC)c(C(=O)O)s2)cn1` has a documented inhibition at 12.5 µM of 101

In plain terms, `CCCCNC(=O)c1csc(-c2cnc(NC(=O)NCC)cc2-c2ccccc2)n1` has a documented inhibition at 12.5 µM of 97.8
